For each record, write down the corresponding kcat.
B1: glmS ribozyme (parent)
chain: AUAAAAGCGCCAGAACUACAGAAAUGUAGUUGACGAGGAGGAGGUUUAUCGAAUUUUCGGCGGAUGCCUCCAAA

- Variants of: B1
- ASSAY EXPLANATION: kcat; higher = faster cleavage; RNA array
- CONDITION SET: with glucosamine-6-phosphate
Fewer inactive variants are shown than the library holds.

Return reported kcat; argument: C16U U31C
0.00735 s⁻¹

Return reported kcat; argument: A12G U47C
0.000813 s⁻¹

Return reported kcat; argument: G40A G41A
0.000106 s⁻¹

Return reported kcat; argument: A42U U55G
0.000182 s⁻¹

Return reported kcat; argument: A42G A53C
0.00933 s⁻¹

Return reported kcat; argument: C16A C67U
0.000302 s⁻¹

Return reported kcat; argument: C67A C68A
3.56e-05 s⁻¹

Return reported kcat; argument: U55C C68U
3.04e-05 s⁻¹

Return reported kcat; argument: U55A C68A
7.99e-05 s⁻¹

Return reported kcat; argument: C16U C67G
0.000799 s⁻¹

Return reported kcat; argument: G32C G37C
< 1e-05 s⁻¹

Return reported kcat; argument: A14G G44A
0.00146 s⁻¹

Return reported kcat; argument: A39G A53U
0.0202 s⁻¹

Return reported kcat; argument: G13U C71A
0.000178 s⁻¹

Return reported kcat; argument: C16G U30A U65G
0.000143 s⁻¹

Reference for the values: the supplement of paper PMC7125110
